System: Panc-2H4 cells
Experiment: Human Panc-2H4 insulin suppression assay
Assay type: cell-based
Settings: Table 3; read-out: Human Panc-2H4 insulin suppression assay ED50
QUANTITY_KIND: EC50

CC(C)(C)C(=O)N[C@H]1CCCNC1=O | > 1000 nM

# ---- query compound ----
Quick one: EC50 for O=C1NCCCC[C@@H]1NC(=O)C12CC3CC(CC(C3)C1)C2 ?
> 1000 nM
